System: OVCAR-4 ovarian
Assay: NCI-60 one-dose screen, 48 h (100 = growth as untreated, 0 = no growth, -100 = all killed)
Conditions: 10 µM unless noted
The panel holds about 83,000 compounds, 20% with a hit somewhere; the sample as a whole holds those more often.
Given measured growth, output 1.0 if it is greater than or equal to 90% and 0.0 if not.

Reference set, count: 10
Cc1ccc2nc(NC(=O)CSc3nc(-c4ccccc4)c(C#N)c(=O)n3Cc3ccccc3)sc2c1; 1.0
FC(F)(F)c1cc(Nc2ccc3cc(OCCCN4CCOCC4)ccc3n2)ccc1Cl; 0.0
COc1cccc(-c2nn(-c3ccccc3)cc2-c2ccnc(NCCCNC(=O)c3ccccc3)c2)c1; 0.0
CN(C)CCCn1c(=O)c2ccccc2c2ccccc21; 0.0
N=C1CCC(=N)c2c1c(O)c1ccccc1c2O; 1.0
CCc1ccccc1-n1c(N)c(C#N)c(-c2ccc(N(C)C)cc2)c(C#N)c1=O; 1.0
COc1ccc(-c2ccc3c(c2)sc2nc(-c4ccc(F)cc4)cn23)cc1; 0.0
Cc1cccc(NC(=O)N/C(N)=N/c2nc(C)c(C)s2)c1; 0.0
O=C(Nc1cccc(C(F)(F)F)c1)Nc1cccc(C(F)(F)F)c1; 0.0
Oc1c(CN2CCCC2)cc(COCc2ccc(Br)cc2)c2cccnc12; 0.0

Does the compound `Cc1c(O)cc(-c2cnc(N/N=C\c3ccc(Cl)cc3)s2)c(O)c1C` have recorded growth that is 90% or more?
0.0

Does the compound `NC[C@H](O)c1ccc(O)c(O)c1` have recorded growth that is 90% or more?
1.0

Does the compound `O=C1OC(c2nc3ccccc3s2)=C/C1=C\c1ccc(O)cc1` have recorded growth that is 90% or more?
1.0

Does the compound `Cc1ccc(S(=O)(=O)Oc2cc(OS(=O)(=O)c3ccc(C)cc3)cc(OS(=O)(=O)c3ccc(C)cc3)c2)cc1` have recorded growth that is 90% or more?
1.0

Does the compound `Cn1c(=O)c2[nH]c(NN)nc2n(C)c1=O` have recorded growth that is 90% or more?
1.0

---

Test system: K-562 leukemia
Experiment: NCI-60 one-dose screen, 48 h
Conditions: 10 µM unless noted
About 83,000 compounds went through this panel and 20% of them were active in at least one assay; those are over-represented in the sample as a whole. The source made the active and inactive calls. The calls were made as follows: active = growth percent below 10; inactive = the rest.
Answer with one of the outcomes given here: active, inactive

Reference set, count: 3
COc1cc(C(=O)/C=C/c2c(-c3ccc(F)cc3)nc3sc(C)cn23)cc(OC)c1OC; active
O=C(c1ccccc1)c1c(/C=C/c2ccc(Cl)cc2)nc2ccccc2c1/C=C/c1cccs1; inactive
CCCCc1ccc(Nc2ccc(Nc3ccc(CCCC)cc3S(=O)(=O)O)c3c2C(=O)c2ccccc2C3=O)c(S(=O)(=O)O)c1; inactive

Can you look up the reported call for `COC(=O)c1c2c(c(C)[n+]([O-])c1C)C(=O)C(NCc1ccc(F)cc1)=CC2=O` for me?
active

Can you look up the reported call for `COc1cc(-c2n/c(=C\c3c(O)[nH]c4ccc(Cl)cc34)cc3c2=Nc2ccccc2-3)cc(OC)c1OC` for me?
active

Can you look up the reported call for `O=c1[nH][n+](-c2ccc(Cl)cc2)no1` for me?
inactive

Can you look up the reported call for `O=[N+]([O-])c1ccc(OCCO)cc1` for me?
inactive

Can you look up the reported call for `COc1ccc(-c2nc3ccc4[nH]ncc4c3c3c2CCCC3)cc1B(O)O` for me?
inactive

Can you look up the reported call for `COc1ccc(-c2nc(SCC(=O)Nc3nc(-c4ccccc4)cs3)[nH]c(=O)c2C#N)cc1` for me?
inactive

Can you look up the reported call for `CCOC(=O)c1c2c(n3ccc(NC(=O)OC(C)(C)C)cc13)C(=O)c1ncccc1C2=O` for me?
active

Can you look up the reported call for `O=C(/C=C/c1cccc(O)c1)c1cccc(-n2cc(-c3ccc4ccccc4c3)[nH]c2=O)c1` for me?
active

Can you look up the reported call for `Cn1cc(-c2csc(-c3cccc(F)c3)n2)c2cccnc21` for me?
active

Can you look up the reported call for `CCCc1cc2c(=O)c(C(=O)OC)c[nH]c2cc1N(CC)CC` for me?
inactive

Can you look up the reported call for `COc1cc2nc(Cl)nc(Nc3ccc(S(=O)(=O)Nc4nccs4)cc3)c2cc1OC` for me?
inactive

Data credit: PubChem BioAssay (NCI)
